src = ChEMBL document CHEMBL4385596

Tested on: ORF 73 (Human herpesvirus 8), O40947 [UNDEFINED MUTATION]
Assay: Inhibition of 5'-Dy682-labelled LBS1/LBS2 DNA binding to human herpesvirus 8 C-terminal His-tagged LANA oligomerization deficient mutant DBD (1008 to 1146 residues) expressed in Escherichia coli BL21 (DE3) at 500 uM preincubated for 1 hr followed by 5'-Dy682-labelled LBS1 DNA addition and measured after 30 mins by electrophoretic mobility shift assay
Conditions: Human gammaherpesvirus 8
The source made the active and inactive calls. The calls are words filed in the database; no cut-off is given here.
The reply should name one outcome from active, inactive

{"columns": ["compoundStructure", "category"],
 "data": [
  ["Nc1ccccc1-c1cn(-c2ccc(C(=O)O)cc2)nn1", "active"],
  ["Nc1ccc(-c2cn(-c3ccc(C(=O)O)cc3)nn2)cc1", "active"],
  ["O=C(O)c1ccc(-c2cn(-c3cccnc3)nn2)cc1", "active"],
  ["Nc1ccccc1-n1cc(-c2ccc(C(=O)O)cc2)nn1", "active"],
  ["Nc1cccc(-c2cn(-c3ccc(C(=O)O)cc3)nn2)c1", "inactive"]
]}

Read the next record carefully.
Write down the call the test reported for this molecule. Item: `O=C(O)c1ccc(-n2cc(C3(O)CCCC3)nn2)cc1`
inactive

###

Tested on: ORF 73 (Human herpesvirus 8), O40947 [UNDEFINED MUTATION]
Assay: Inhibition of 5'-Dy682-labelled LBS1 DNA binding to human herpesvirus 8 C-terminal His-tagged LANA oligomerization deficient mutant DBD (1008 to 1146 residues) expressed in Escherichia coli BL21 (DE3) at 500 uM preincubated for 1 hr followed by 5'-Dy682-labelled LBS1 DNA addition and measured after 30 mins by electrophoretic mobility shift assay
Details: Human gammaherpesvirus 8
Active and inactive are the calls of the source. The calls are words filed in the database; no cut-off is given here.
Allowed answers: true (active), false (inactive)

These recorded examples may help you get a feel for the data.
{"columns": ["compoundStructure", "category"],
 "data": [
  ["O=C(O)c1ccc(-c2cn(-c3cccnc3)nn2)cc1", "true"],
  ["Nc1cccc(-c2cn(-c3ccc(C(=O)O)cc3)nn2)c1", "false"],
  ["Nc1ccccc1-c1cn(-c2ccc(C(=O)O)cc2)nn1", "true"],
  ["O=C(O)c1ccc(-n2cc(C3(O)CCCC3)nn2)cc1", "false"],
  ["Nc1ccc(-c2cn(-c3ccc(C(=O)O)cc3)nn2)cc1", "true"]
]}

Assay result, entry `Nc1ccccc1-n1cc(-c2ccc(C(=O)O)cc2)nn1` — outcome?
true

###

Please respond with reported pIC50 for every item in the list.
Biological target: ORF 73 (Human herpesvirus 8, UniProt O40947)
Experiment: Inhibition of fluorescent labelled LBS2 DNA binding to human herpesvirus 8 C-terminal His-tagged LANA oligomerization deficient mutant DBD (1008 to 1146 residues) expressed in Escherichia coli BL21 (DE3) preincubated for 60 mins followed by fluorescent labelled LBS2 addition and measured after 90 mins by fluorescence polarization assay
Parameters: species or system Human gammaherpesvirus 8
Settings: read-out: IC50
Numbers only, as −log10 of the molar value.

Some solved entries appear below for comparison.
{"columns": ["compoundStructure", "measurementLabel", "dataValue"],
 "data": [
  ["Nc1ccc(-c2cn(-c3ccc(C(=O)O)cc3)nn2)cc1", "pIC50", 4.85],
  ["O=C(O)c1ccc(-n2cc(C3CC3)nn2)cc1", "pIC50", 3.16]
]}

Consider the following items and state reported pIC50 for each.
1. COCc1cn(-c2ccc(C(=O)OC)cc2)nn1
2. COCc1cn(-c2ccc(C(=O)O)cc2)nn1
3. O=C(O)c1ccc(-n2cc(C3(O)CCCC3)nn2)cc1
4. COC(=O)c1ccc(-n2cc(CO)nn2)cc1
5. Nc1cccc(-c2cn(-c3ccc(C(=O)O)cc3)nn2)c1
6. O=C(O)c1ccc(-n2cc(-c3ccc(CO)cc3)nn2)cc1
7. Nc1ccccc1-n1cc(-c2ccc(C(=O)O)cc2)nn1
8. Nc1ccc(-n2cc(-c3ccc(C(=O)O)cc3)nn2)cc1

1. 3.63
2. 3.68
3. 3.80
4. 4.08
5. 3.96
6. 4.57
7. 4.74
8. 4.72

Go through the list and state pIC50 for each entry.
1. O=C(O)c1ccccc1-n1ccnc1
2. Nc1ccccc1-c1cn(-c2ccc(C(=O)O)cc2)nn1
3. COC(=O)c1cn(-c2ccc(C(=O)O)cc2)nn1

1: 3.48; 2: 4.55; 3: 3.79

###

Target: ORF 73 (Human herpesvirus 8, UniProt O40947)
Assay: Inhibition of fluorescent labelled LBS2 DNA binding to human herpesvirus 8 C-terminal His-tagged LANA oligomerization deficient mutant DBD (1008 to 1146 residues) expressed in Escherichia coli BL21 (DE3) preincubated for 60 mins followed by fluorescent labelled LBS2 addition and measured after 90 mins by fluorescence polarization assay
Parameters: species or system Human gammaherpesvirus 8
Details: read-out: IC50
Mark each entry 1 if its IC50 sits below 30 µM, and -1 for all others.

Answered examples (3):
{"columns": ["compoundStructure", "assayedTarget", "category"],
 "data": [
  ["O=C(O)c1ccc(-c2cn(-c3ccc(O)cc3)nn2)cc1", "ORF 73 (Human herpesvirus 8, UniProt O40947)", -1],
  ["O=C(O)c1ccc(-n2cc(-c3ccccc3)nn2)cc1", "ORF 73 (Human herpesvirus 8, UniProt O40947)", -1],
  ["O=C(O)c1ccc(-n2cc(CO)nn2)cc1", "ORF 73 (Human herpesvirus 8, UniProt O40947)", -1]
]}

Please turn your attention to the following entry.
Just wondering, is IC50 of `O=C(O)c1ccc(-c2cn(-c3cccnc3)nn2)cc1` below 30 µM?
1

###

Experiment: Inhibition of 5'-Dy682-labelled LBS1 DNA binding to GST-tagged LANA C-terminal domain (934 to 1162 residues) preincubated for 1 hr followed by 5'-Dy682-labelled LBS1 DNA addition and measured after 30 mins by electrophoretic mobility shift assay
Parameters: species or system Human gammaherpesvirus 8
measurementLabel: pIC50
Give bare numbers, as −log10 of the molar value.

Input `O=C(O)c1ccc(-c2cn(-c3cccnc3)nn2)cc1` . Output pIC50: 3.36

###

Test system: ORF 73 (Human herpesvirus 8), O40947 [UNDEFINED MUTATION]
Experiment: Inhibition of fluorescent labelled LBS2 DNA binding to human herpesvirus 8 C-terminal His-tagged LANA oligomerization deficient mutant DBD (1008 to 1146 residues) expressed in Escherichia coli BL21 (DE3) at 1 mM preincubated for 60 mins followed by fluorescent labelled LBS2 addition and measured after 90 mins by fluorescence polarization assay relative to control
Details: Human gammaherpesvirus 8
Hi there, I'd appreciate the recorded inhibition for every entry that follows.

Worked cases, inhibition given:
{"columns": ["compoundStructure", "inhibition"],
 "data": [
  ["O=C(O)c1ccccc1-n1ccnn1", "12%"],
  ["O=C(O)c1ccc(-n2ccnc2)cc1", "13%"],
  ["Nc1ccccc1-n1cnc(Br)c1", "13%"],
  ["O=C(O)c1ccccc1-n1ccnc1", "50%"]
]}

Entry `O=C(O)c1cccc(-n2ccnc2)c1` ; inhibition = 19%
